Data provenance: patent US20190153103A1

targetOrSystem: cynomolgus BMPR1B overexpressed on the surface of HEK293T cells (N-terminal Asp-Lys epitope tag, … (cynomolgus))
procedureText: cell-based or functional assay
propertyLabel: % live, Fab-saporin, 250pM (%)
One number for each entry, in %.

Take a look at these entries with their results.
binder	resultValue
SC91.155 (antibody, V domains shown) VH: QIQLVQSGPELKKPGETVKISCKASGYTFTTYGMNWVKQAPGKGLKWMGWINSYSGVPAYADDFKGRFAFSLETFASTAYLQINNLRDEDTATYFCARSELRNWYFDVWGTGTTVTVSS VL: SFVMTQTPKFLLVSAGDRVTITCKASQNLGNDVAWYQQKPGQSPRLLIYFASNRYTGVPDRFTGSGYGTDFTFTISTVQAEDLAVYFCQQDYSSPFTFGSGTKLEIK	45.1
SC91.149 (antibody, V domains shown) VH: QVQLLQPGAELVKPGSSVKVSCKASGYTFTNYWMQWVKQRPGQGLEWIGEIDPSDTYTLYNQKFKGKATLTVDTSSSTAYMQLSSLTSEDSAVYYCARFGYYVDYWGQGTTLTVSS VL: DVVMTQTPLSLPVSLGDQASISCRSSQSLVHSTGNTYFHWYLQKPGQSPELLIYKVSNRFSGVPDRFRGSGSGTDFTLKISRVEAEDLGVYFCSQSTHVPFTFGSGTKLEIK	20.7

Now for the binder whose % live, Fab-saporin, 250pM we want.
Lookup: Sample SC91.172 (antibody, V domains shown) VH: QVQLQQPGADLVKPGTSVKLSCKASGYTFTSYWMQWVKQRPGQGLEWIGEIDPSDTYTMYNQKFKGKATLTVDTSSSTAYMQLSSLTSEDSAVYYCARFGYYVDYWGQGTTLTVSS VL: DVVMTQTPLSLPVSLGDQASISCRSSQSLVHSTGNTYLHWYLQKAGQSPKLLIYKVSNRFSGVPDRFSGSGSGTDFTLKISRVEAEDLGVYFCSQSTHVPFTFGSGTKLEIK — what was its % live, Fab-saporin, 250pM?
Found: 18
